Target: Fibroblast growth factor 2 (Homo sapiens)
Assay: FGF2 binders on small-molecule microarrays, primary screen, biochemical, small-molecule microarray, 635/667 nm fluorescence (AID 1133)
Conditions: small-molecule microarray binding, FGF2, fluorescence 635/667; higher = more signal
Parameter threshold = 0.6. Response is yes (1) when composite z-score meets or exceeds it, else no (0).

>>> label_class("CCOC(=O)[C@H](CC(C)C)NC(=O)CCC1CC(OC(=O)NCCc2ccc(F)cc2)CC2(CCCC(COC(=O)NCCCN3CCCC3=O)O2)O1 (stereo partly drawn)")
"no (0)"
>>> label_class("CCN1C(=O)[C@H]2[C@H]3[C@H](O)[C@H](O)CC(=NO[C@@H]4O[C@H](COC(C)=O)[C@@H](OC(C)=O)[C@H](OC(C)=O)[C@H]4OC(C)=O)[C@@H]3CC[C@H]2C1=O")
"yes (1)"
>>> label_class("CCN1C(=O)[C@H]2[C@H]3[C@H](O)[C@H](O)CC(=NOCC(C)C)[C@H]3CC[C@H]2C1=O")
"no (0)"
>>> label_class("CC(CCN1CCc2nc(-c3ccccc3)c(-c3ccccc3)cc2C1)=NOC(C)CN1CCCc2nc(C)c(C)cc21 (stereo not drawn)")
"no (0)"
>>> label_class("O=C1CCCC=C1C(O)C1CCCCC1 (stereo not drawn)")
"no (0)"
>>> label_class("CCN(CC)CC(O)CN1CCCCc2nc(C)c(C)cc21 (stereo not drawn)")
"yes (1)"
>>> label_class("CCCNC(=O)OC[C@H]1O[C@H](CCON=C2C[C@@H](O)[C@@H](O)[C@@H]3[C@@H]4C(=O)N(CC)C(=O)[C@@H]4CC[C@@H]23)C=C[C@@H]1Oc1ccc(OC)cc1")
"yes (1)"

meta.source: PubChem BioAssay
